# stated_conditions: 298.15 K; 101.33 kPa; Liquid; Vibrating tube method
± gives the expanded uncertainty stated by the source.
Give measured mass density for each item. Keep answers brief.

mass density measured on CCn1cc[n+](CC)c1.[Br-] [1,3-diethyl-1H-imidazolium bromide] = 1351.21 ± 1.6 kg/m3

mass density measured on CCCCCCCCCCCC[n+]1ccn(CCCC)c1.[Br-] [1-butyl-3-dodecyl-1H-imidazolium bromide] = 1055.99 ± 1.5 kg/m3

mass density measured on CCCCCC[n+]1ccn(CCCC)c1.[Br-] [1-butyl-3-hexyl-1H-imidazolium bromide] = 1145.49 ± 7.1 kg/m3
